test: Permeability (Papp) across U251 mono-culture model; type: in vitro ADME, Homo sapiens; details: human, group U251 mono-culture, Figure 1F; mean of four replicates; read-out: Papp Mean
quantity-name: Papp A→B at 30 min (×10⁻⁶ cm/s)
// units = ×10⁻⁶ cm/s; emit number, no label

*Q* Need Papp A→B at 30 min, item O=C1OC2(c3ccc(O)cc3Oc3cc(O)ccc32)c2ccccc21 [fluorescein, fluorescein sodium]
*A* 30.6

###

test: In vitro BBB permeability study (Papp), hCMEC/D3 mono-culture BBB model; conditions: human, Papp, Mono group; single replicates; Figure 2T
quantity-name: Papp A→B at 30 min (×10⁻⁶ cm/s)
// units = ×10⁻⁶ cm/s; emit number, no label

*Q* Need Papp A→B at 30 min, item O=C1OC2(c3ccc(O)cc3Oc3cc(O)ccc32)c2ccccc21 [fluorescein, fluorescein sodium]
*A* 30.8

###

experiment: In vitro BBB permeability study (Papp), hCMEC/D3 mono-culture BBB model; settings: human, Papp(cm/s) Mean, Figure 2P; group Mono; group mean
quantity-name: Papp A→B at 30 min
Your reply should be a number followed by the unit it is expressed in.

*Q* Need Papp A→B at 30 min, item O=C1OC2(c3ccc(O)cc3Oc3cc(O)ccc32)c2ccccc21 [fluorescein, fluorescein sodium]
*A* 30.8 ×10⁻⁶ cm/s

###

assay: in vitro; details: human, Papp, Mono
Record form. Attribute: Papp A→B at 30 min. Fill in for each entry.
// units = ×10⁻⁶ cm/s; emit number, no label

*Q* Need Papp A→B at 30 min, item NC12CC3CC(CC(C3)C1)C2
*A* 6.84

*Q* // same read-out, input: CN1CCN2c3ncccc3Cc3ccccc3C2C1 (centres unmarked)
*A* 23.4

*Q* // same read-out, input: CN(C)CCC=C1c2ccccc2COc2ccccc21 [Doxepin]
*A* 16.9

*Q* // same read-out, input: CCN(CC)CCNC(=O)c1cc(Cl)c(N)cc1OC [Metoclopramide]
*A* 14.1

*Q* // same read-out, input: CN1CCN(C2=Nc3cc(Cl)ccc3Nc3ccccc32)CC1
*A* 39

*Q* // same read-out, input: NC(=O)N1c2ccccc2C=Cc2ccccc21 [Carbamazepine]
*A* 34.4

*Q* // same read-out, input: CN(C)CCC=C1c2ccccc2CCc2ccccc21
*A* 15.2

*Q* // same read-out, input: CC(NC(C)(C)C)C(=O)c1cccc(Cl)c1 (centres unmarked)
*A* 15.2

###

assay: Permeability (Papp) across the blank inserts; assay type: in vitro ADME; conditions: not told, blank inserts (no cells), Figure 1F; single replicate; read-out: Papp
quantity-name: Papp at 30 min (×10⁻⁶ cm/s)
// units = ×10⁻⁶ cm/s; emit number, no label

*Q* Need Papp at 30 min, item O=C1OC2(c3ccc(O)cc3Oc3cc(O)ccc32)c2ccccc21 [fluorescein, fluorescein sodium]
*A* 68.7

###

test: In vitro BBB permeability study (Papp), triple co-culture BBB model; conditions: human, Papp Mean, Triple+PP2 group; mean of 4; Figure 2T
quantity-name: Papp A→B at 30 min
Your reply should be a number followed by the unit it is expressed in.

*Q* Need Papp A→B at 30 min, item O=C1OC2(c3ccc(O)cc3Oc3cc(O)ccc32)c2ccccc21 [fluorescein, fluorescein sodium]
*A* 27.5 ×10⁻⁶ cm/s

###

system: triple co-culture BBB model (hCMEC/D3, U251 and SH-SY5Y cells); experiment: In vitro BBB permeability study (Papp), triple co-culture BBB model; conditions: read-out: Papp Mean; Triple co-culture BBB model; mean of 4 replicates
quantity-name: Papp A→B (×10⁻⁶ cm/s)
// units = ×10⁻⁶ cm/s; emit number, no label

*Q* Need Papp A→B, item CC(NC(C)(C)C)C(=O)c1cccc(Cl)c1 (stereo not shown) [Buproprion]
*A* 11.3
